- Protocol notes: chemical genetic growth profiling, strain panel (AID 1159580);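 also: tested at 20 µM; growth read once vehicle control cultures reached saturation at 30 °C; 1 = growth at the plate median or of vehicle wells; lower values mean less growth of the strain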
- Study conditions: S. cerevisiae deletion strains, growth OD, locus YLR330W, strain CHS5, hits give low values
The campaign covered roughly 5,500 compounds. About 2,000 (36%) were called active. Another 18% or so got no clear call; they are omitted. Some of the results follow.
Reported normalized growth by item:
Give only the figure.

Examples with answers:
>>> assay_value("NC(=O)c1cccc(N)c1")
1.01
>>> assay_value("Cc1ccc(Cl)c(Nc2ccccc2C(=O)O)c1Cl")
0.893
>>> assay_value("COc1ccc2c(c1OC)C(=O)OC2[C@H]1c2c(cc3c(c2OC)OCO3)CCN1C (some centres undefined)")
0.991

Supply normalized growth value. Item: Cc1c(Cl)cccc1Nc1ccccc1C(=O)O
0.82

Identify measured normalized growth corresponding to COc1ccc(CCN2CCC(Nc3nc4ccccc4n3Cc3ccc(F)cc3)CC2)cc1
0.995

Output normalized growth of CC(=O)OCC(COC(C)=O)OC(C)=O
1.02

Item Cc1cccc(C(=O)O)c1O : provide normalized growth
1.01

Tell us which normalized growth value is on record for CC(C)C(C)/C=C/C(C)[C@H]1CCC2C3=CCC4CC(=O)CC[C@]4(C)C3CC[C@@]21C (some centres undefined)
1.03

Note down normalized growth recorded for Nc1ccc(N=Nc2ccccc2)c(N)n1
0.992

Determine from records and report normalized growth for CC(=O)OCC[C@H](C)CCC=C(C)C
1

Output normalized growth of Cn1c(=O)c2[nH]cnc2n(C)c1=O
0.992

Return normalized growth for the following molecule: CC(C)C(C)/C=C/C(C)C1CCC2C3=CC=C4CC(O)CCC4(C)C3CCC21C (centres undefined)
0.844

Output measured normalized growth for this item: CC1(C)C2CC(=O)[C@]3(C)C(CC[C@@]4(C)[C@H](c5ccoc5)OC(=O)[C@H]5O[C@]543)[C@@]2(C)C=C[C@@H]1O (some centres undefined)
1

Please list normalized growth recorded for the molecule COc1ccc2c(c1O)OCC1c3cc4c(cc3OC21)OCO4 (centres undefined)
0.991

Look up and report measured normalized growth for this entry: COc1ccc2c(c1)O[C@H]1c3ccc(OC)cc3OC[C@@H]21
0.975

Answer with reported normalized growth of CC(C)[C@@H]1CC[C@@H](C)C[C@H]1O
1.01
